Values from ChEMBL document CHEMBL1155384

assayedTarget: Epidermal growth factor receptor (Homo sapiens, UniProt P00533)
Sequence (P00533 whole entry): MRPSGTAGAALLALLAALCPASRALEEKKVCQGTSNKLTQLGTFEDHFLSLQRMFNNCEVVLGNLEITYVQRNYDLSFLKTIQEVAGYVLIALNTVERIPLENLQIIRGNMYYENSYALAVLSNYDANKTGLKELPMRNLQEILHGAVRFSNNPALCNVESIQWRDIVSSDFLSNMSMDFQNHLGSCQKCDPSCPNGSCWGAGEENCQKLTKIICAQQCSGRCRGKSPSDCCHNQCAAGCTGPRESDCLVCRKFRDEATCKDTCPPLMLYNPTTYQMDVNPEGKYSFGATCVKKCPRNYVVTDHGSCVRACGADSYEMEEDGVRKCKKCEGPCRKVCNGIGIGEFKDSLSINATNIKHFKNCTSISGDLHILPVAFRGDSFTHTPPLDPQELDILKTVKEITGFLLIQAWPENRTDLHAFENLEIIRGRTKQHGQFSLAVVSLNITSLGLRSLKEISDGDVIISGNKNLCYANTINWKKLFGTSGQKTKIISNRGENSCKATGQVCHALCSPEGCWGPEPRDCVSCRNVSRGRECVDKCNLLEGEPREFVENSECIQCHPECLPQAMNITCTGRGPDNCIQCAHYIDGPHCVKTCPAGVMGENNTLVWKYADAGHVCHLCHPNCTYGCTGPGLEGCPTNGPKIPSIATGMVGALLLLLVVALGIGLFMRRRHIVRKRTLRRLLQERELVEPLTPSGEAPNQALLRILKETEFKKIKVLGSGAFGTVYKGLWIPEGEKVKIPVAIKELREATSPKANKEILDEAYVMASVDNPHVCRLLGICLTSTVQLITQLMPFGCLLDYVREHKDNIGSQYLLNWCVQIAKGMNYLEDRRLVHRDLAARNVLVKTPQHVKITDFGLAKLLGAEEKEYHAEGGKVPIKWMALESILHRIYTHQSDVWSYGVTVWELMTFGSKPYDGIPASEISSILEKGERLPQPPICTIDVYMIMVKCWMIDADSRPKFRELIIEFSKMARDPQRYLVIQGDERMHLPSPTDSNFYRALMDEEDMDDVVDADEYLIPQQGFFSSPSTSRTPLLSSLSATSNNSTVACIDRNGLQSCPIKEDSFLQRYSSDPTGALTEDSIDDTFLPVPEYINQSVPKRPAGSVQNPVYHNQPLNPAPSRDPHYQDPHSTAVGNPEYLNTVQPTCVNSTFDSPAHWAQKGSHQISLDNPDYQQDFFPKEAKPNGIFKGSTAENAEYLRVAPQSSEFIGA
measuredMetric: IC50

For this molecule ( O=C1Nc2ccc(F)cc2/C1=C1/Nc2ccccc2/C1=N\O ), measured IC50 is > 10 µM

---

assayedTarget: Receptor-type tyrosine-protein kinase FLT3 (Homo sapiens)
Sequence (P36888 whole entry): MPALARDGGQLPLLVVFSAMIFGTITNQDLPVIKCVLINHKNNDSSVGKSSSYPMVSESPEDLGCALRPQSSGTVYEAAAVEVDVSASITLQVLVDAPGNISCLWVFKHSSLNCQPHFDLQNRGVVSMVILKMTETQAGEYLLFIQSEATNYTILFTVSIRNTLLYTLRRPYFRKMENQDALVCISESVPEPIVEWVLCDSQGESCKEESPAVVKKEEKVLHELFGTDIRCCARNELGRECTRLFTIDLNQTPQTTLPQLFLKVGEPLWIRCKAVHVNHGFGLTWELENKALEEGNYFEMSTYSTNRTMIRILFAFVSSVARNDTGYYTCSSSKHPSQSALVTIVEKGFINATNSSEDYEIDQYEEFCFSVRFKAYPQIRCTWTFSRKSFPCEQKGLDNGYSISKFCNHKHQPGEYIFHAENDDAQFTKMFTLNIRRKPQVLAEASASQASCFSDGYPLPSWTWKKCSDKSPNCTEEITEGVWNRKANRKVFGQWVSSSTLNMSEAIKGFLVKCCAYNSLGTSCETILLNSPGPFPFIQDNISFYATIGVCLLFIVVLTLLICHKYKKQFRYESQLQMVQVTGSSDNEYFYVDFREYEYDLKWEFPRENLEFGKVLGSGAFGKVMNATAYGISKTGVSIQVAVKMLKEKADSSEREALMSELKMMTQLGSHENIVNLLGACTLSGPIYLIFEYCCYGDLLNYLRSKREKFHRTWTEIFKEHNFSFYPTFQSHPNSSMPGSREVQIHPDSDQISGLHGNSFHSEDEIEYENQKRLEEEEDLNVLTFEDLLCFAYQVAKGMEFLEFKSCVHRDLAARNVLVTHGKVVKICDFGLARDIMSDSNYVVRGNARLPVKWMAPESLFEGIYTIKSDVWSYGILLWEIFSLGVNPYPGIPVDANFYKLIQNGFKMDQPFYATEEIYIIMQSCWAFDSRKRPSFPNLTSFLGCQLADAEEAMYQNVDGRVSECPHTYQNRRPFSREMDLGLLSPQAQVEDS
Kindly supply the reported log10(IC50) values for the records listed here.
Reminder: these figures are log10 of reported IC50, in nM before transformation.

Solved entries:
# structureAsSmiles, measuredMetric, measValue
records = [
    ("O=C1C(c2c(O)[nH]c3ccc(Cl)cc23)=Nc2ccccc21", "log10(IC50)", 2.33),
    ("O=C1C(c2c(O)[nH]c3ccc(F)cc23)=Nc2ccccc21", "log10(IC50)", 4.00),
    ("O=C1Nc2ccc(S(=O)(=O)O)cc2/C1=C1/Nc2ccccc2/C1=N\\O", "log10(IC50)", 0.95),
]

For each entry beneath this line, provide reported log10(IC50).
1. Nc1ccc2c(c1)/C(=C1/Nc3ccccc3C1=O)C(=O)N2
2. Cc1cc(C)c2c(c1)/C(=C1/Nc3ccccc3/C1=N\O)C(=O)N2
3. O=C1C(c2c(O)[nH]c3ccc(I)cc23)=Nc2ccccc21
4. O=C1Nc2ccc(F)cc2/C1=C1/Nc2ccccc2/C1=N\O

1: 2.56; 2: 2.98; 3: 3.67; 4: 1.18
